Reference source for all entries: patent US8383581B2

- assay-remarks: Stability of peptides in simulated intestinal fluid (pH 7.5)
- Type: in vitro ADME
- condition-set: simulated gi fluid, pH 7.5
Where a SMILES comes first, the peptide text is derived from it. [ ]: non-standard residue; d: D form. ξ: configuration not given here. ξαMePhe(2,6-F2) = CC(N)(Cc1c(F)cccc1F)C(=O)O; ξαMePhe(2-F) = CC(N)(Cc1ccccc1F)C(=O)O; hArg = N=C(N)NCCCC[C@H](N)C(=O)O; ξαMeF = CC(N)(Cc1ccccc1)C(=O)O; Nle = CCCC[C@H](N)C(=O)O; ξαMeP = CC1(C(=O)O)CCCN1; Ac5c = NC1(C(=O)O)CCCC1; Ac3c = NC1(C(=O)O)CC1; Aib = CC(C)(N)C(=O)O
readout-type: half-life

// worked examples, half-life included
*Q* Endpoint output: half-life of CCCC[C@H](NC(=O)C(C)(Cc1ccccc1F)NC(=O)[C@H](CCC(N)=O)NC(=O)[C@@H](NC(=O)[C@H](CCC(=O)O)NC(=O)C(C)(C)NC(=O)[C@@H](NC(=O)C(C)(C)N)C(C)C)[C@@H](C)CC)C(=O)N[C@@H](Cc1c[nH]cn1)C(=O)N[C@@H](CCC(N)=O)C(=O)N[C@@H](CCCCNC(=N)N)C(=O)N1CCCC1(C)C(=O)N[C@@H](CCCCN)C(=O)NC(C)(Cc1ccccc1F)C(N)=O (stereo partly shown) [Seq. ID. 56] (H-[Aib]V[Aib]EIQ[ξαMePhe(2-F)][Nle]HQ[hArg][ξαMeP]K[ξαMePhe(2-F)]-NH2) . Value?
*A* > 24 h

*Q* Param item: CCCC[C@H](NC(=O)C(C)(Cc1c(F)cccc1F)NC(=O)[C@H](CCC(N)=O)NC(=O)[C@@H](NC(=O)[C@H](CCC(=O)O)NC(=O)C(C)(C)NC(=O)[C@@H](NC(=O)C1(N)CC1)C(C)C)[C@@H](C)CC)C(=O)N[C@@H](Cc1c[nH]cn1)C(=O)N[C@@H](CCC(N)=O)C(=O)N[C@@H](CCCCNC(=N)N)C(=O)N1CCCC1(C)C(=O)N[C@@H](CCCCN)C(=O)NC(C)(Cc1ccccc1F)C(N)=O (stereo partly shown) [Seq. ID. 75] (H-[Ac3c]V[Aib]EIQ[ξαMePhe(2,6-F2)][Nle]HQ[hArg][ξαMeP]K[ξαMePhe(2-F)]-NH2)
*A* 0.5 h

For every record below, what is its half-life?
1. CCCC[C@H](NC(=O)C(C)(Cc1c(F)cccc1F)NC(=O)[C@H](CCC(N)=O)NC(=O)[C@@H](NC(=O)[C@H](CCC(=O)O)NC(=O)C1(NC(=O)[C@@H](NC(=O)C2(N)CCCC2)C(C)C)CCCC1)[C@@H](C)CC)C(=O)N[C@@H](Cc1c[nH]cn1)C(=O)N[C@@H](CCC(N)=O)C(=O)N[C@@H](CCCCNC(=N)N)C(=O)N1CCCC1(C)C(=O)N[C@@H](CCCCN)C(=O)NC(C)(Cc1ccccc1)C(N)=O (stereo partly shown) [Seq. ID. 46] (H-[Ac5c]V[Ac5c]EIQ[ξαMePhe(2,6-F2)][Nle]HQ[hArg][ξαMeP]K[ξαMeF]-NH2)
2. CCCC[C@H](NC(=O)C(C)(Cc1ccccc1F)NC(=O)[C@H](CCC(N)=O)NC(=O)[C@@H](NC(=O)[C@H](CCC(=O)O)NC(=O)C1(NC(=O)[C@@H](NC(=O)C2(N)CCCC2)C(C)C)CCCC1)[C@@H](C)CC)C(=O)N[C@@H](Cc1c[nH]cn1)C(=O)N[C@@H](CCC(N)=O)C(=O)N[C@@H](CCCCNC(=N)N)C(=O)N1CCCC1(C)C(=O)N[C@@H](CCCCN)C(=O)NC(C)(Cc1c(F)cccc1F)C(N)=O (stereo partly shown) [Seq. ID. 100] (H-[Ac5c]V[Ac5c]EIQ[ξαMePhe(2-F)][Nle]HQ[hArg][ξαMeP]K[ξαMePhe(2,6-F2)]-NH2)

*A*
1: > 24 h; 2: > 24 h
